Test system: MOLT-16;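 note: growth inhibition of human MOLT-16 cells, read out with a cell viability assay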
Experiment: cells
Format: functional, cell-based
Details: Homo sapiens
Description: SANGER: Inhibition of human MOLT-16 cell growth in a cell viability assay.
Catalogue of molecules with associated IC50

Known IC50 results, listed for orientation:
[
  {
    "smi": "Cc1ccc(Nc2nccc(N(C)c3ccc4c(C)n(C)nc4c3)n2)cc1S(N)(=O)=O",
    "result": "> 8 µM"
  },
  {
    "smi": "CNC(=O)c1cc(Oc2ccc(NC(=O)Nc3ccc(Cl)c(C(F)(F)F)c3)cc2)ccn1",
    "result": "> 4 µM"
  },
  {
    "smi": "CN(c1ncccc1CNc1nc(Nc2ccc3c(c2)CC(=O)N3)ncc1C(F)(F)F)S(C)(=O)=O",
    "result": "> 2.56 µM"
  },
  {
    "smi": "O=c1cc(-c2cccc3c2Sc2ccccc2S3)oc(N2CCOCC2)c1",
    "result": "> 10 µM"
  },
  {
    "smi": "CN1CCN(CCOc2cc(OC3CCOCC3)c3c(Nc4c(Cl)ccc5c4OCO5)ncnc3c2)CC1",
    "result": "> 2 µM"
  }
]

Input Cn1cc(C2=C(c3ccc(Cl)cc3Cl)C(=O)NC2=O)c2ccccc21 . Output IC50: > 10 µM

Form field IC50, entry CS(=O)(=O)CCNCc1ccc(-c2ccc3ncnc(Nc4ccc(OCc5cccc(F)c5)c(Cl)c4)c3c2)o1 : > 2 µM
